Cited source for all entries: the supplement of paper PMC9233669

# Test system: biotinyl-Met-oxazolone
# Test Protocol: self-aminoacylation, catalytic enhancement (BMO) (fold over background); higher = more active; k-Seq, kA / k0A0; sequences stand for … in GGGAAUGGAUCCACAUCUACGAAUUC…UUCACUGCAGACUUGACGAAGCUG
Variants at the floor of the assay were thinned out.

>  <Sequence Chain>
AUUCAGCUAGUUCAUCGGGUG [Fam2.2 aminoacylation ribozyme variant]

>  <Test System>
biotinyl-Met-oxazolone

>  <self-aminoacylation>
7.01

$$$$
>  <Sequence Chain>
CUACUGCAAACAAUCGAUCUG [Fam1A.1 aminoacylation ribozyme variant]

>  <Test System>
biotinyl-Met-oxazolone

>  <self-aminoacylation>
0.937

$$$$
>  <Sequence Chain>
AUGCACCUAGGUCAUCGCGUG [Fam2.2 aminoacylation ribozyme variant]

>  <Test System>
biotinyl-Met-oxazolone

>  <self-aminoacylation>
8.45

$$$$
>  <Sequence Chain>
CCACUUCAAACAAUCGGUCCG [Fam1A.1 aminoacylation ribozyme variant]

>  <Test System>
biotinyl-Met-oxazolone

>  <self-aminoacylation>
1.18

$$$$
